Origin of measurements: ChEMBL document CHEMBL4043282

experiment: Stability in human liver microsomes at […] preincubated for 3 mins followed by NADPH addition measured after 1 hr in presence of GSH and [13C2-15N-glycine]-GSH by HPLC/MS method; type: ADME, microsome; conditions: read-out: Stability
endpointName: remaining at 1 h (%)
Give the quantity in %, number only.

Memo: `Cc1ccccc1NC(=O)C[C@@H](C)C(=O)N[C@@H]1C(=O)N2CCCN2Cc2ccccc21` , reported remaining at 1 h: 70.8

###

assay: Inhibition of human gamma-secretase expressed in HEK293 cells using Notch1-VP16-Gal4 as substrate after 24 hrs by Bright-Glo luciferase reporter gene assay; format: cell-based; conditions: HEK293, 24 h
Provide the recorded pIC50 for the entries that follow.
Friendly reminder that pIC50 comes from taking -log10 of the concentration in mol/L.

Memo: `Cc1ncc(F)cc1NC(=O)C[C@@H](C)C(=O)N[C@@H]1C(=O)N2CCCN2Cc2ccccc21` , reported pIC50: 5.09

Memo: `Cc1ccc(NC(=O)C[C@@H](C)C(=O)N[C@@H]2C(=O)N3CCCN3Cc3ccccc32)cc1` , reported pIC50: 7.57

Memo: `Cc1cccc(NC(=O)C[C@@H](C)C(=O)N[C@@H]2C(=O)N3CCCN3Cc3ccccc32)c1` , reported pIC50: 6.21

Memo: `C[C@H](CC(=O)Nc1cc(F)cc(F)c1)C(=O)N[C@@H]1C(=O)N2CCCN2Cc2ccccc21` , reported pIC50: 7.77

Memo: `Cc1ncc(F)cc1NC(=O)C[C@@H](C)C(=O)N[C@@H]1C(=O)N2CCCN2Cc2c(F)cccc21` , reported pIC50: 5.11

Memo: `Cc1ccccc1NC(=O)C[C@@H](C)C(=O)N[C@@H]1C(=O)N2CCCN2Cc2ccccc21` , reported pIC50: 5.73

Memo: `Cc1ncc(F)cc1NC(=O)C[C@H](C(=O)N[C@@H]1C(=O)N2CC3(CC3)CN2C(=O)c2ccccc21)C1CC1` , reported pIC50: 5.21
